Test method notes: Eletriptan transport across Caco-2 cell monolayers, effect of concentration
Format: in vitro ADME, human
Experimental conditions: human; Caco-2, 1 μM eletriptan, 2 hours, 37° C.; read-out: Absorptive A -> B Papp
Procedure: Caco-2 cell monolayers were grown on permeable 24 well filter supports (1 μm poresize) and used at Day 15-28. In studies examining the effect of concentration, 1, 10, 25 and 100 μM solutions of eletriptan in HBSS were added to the donor chamber and Hank's balanced salt solution (HBSS) was added to the acceptor chamber. The volume of the apical and basolateral chambers were 0.25 ml and 1 ml respectively.
Endpoint label: Papp A→B at 2 h, 1 μM
Units required after the number.

Look up Papp A→B at 2 h, 1 μM for this compound: CN1CCC[C@@H]1Cc1c[nH]c2ccc(CCS(=O)(=O)c3ccccc3)cc12
17 ×10⁻⁶ cm/s

* * *

Test method notes: Effect of Vitamin E-TPGS on the pharmacokinetics of eletriptan in beagle dogs
Format: in vivo
Experimental conditions: male, dog, plasma, oral, fasted, 0.2 or 1.0 mg/kg eletriptan with or without 6.67 mg/kg Vitamin E-TGPS
Endpoint label: Cmax

I am curious: what Cmax value has been reported for CN1CCC[C@@H]1Cc1c[nH]c2ccc(CCS(=O)(=O)c3ccccc3)cc12 [eletriptan] ?
7 to 15 ng/mL

* * *

Test method notes: Eletriptan transport across Caco-2 cell monolayers, effect of concentration
Format: in vitro ADME, human
Experimental conditions: human; Caco-2, 100 μM eletriptan, 2 hours, 37° C.; read-out: Absorptive A -> B Papp
Endpoint label: Papp A→B at 2 h, 100 μM (×10⁻⁶ cm/s)
Unit ×10⁻⁶ cm/s implied. Number only.

For the molecule shown here, CN1CCC[C@@H]1Cc1c[nH]c2ccc(CCS(=O)(=O)c3ccccc3)cc12 [eletriptan] , give the reported Papp A→B at 2 h, 100 μM.
29.9

* * *

Test method notes: Effect of Vitamin E-TPGS on the pharmacokinetics of eletriptan in beagle dogs
Type: in vivo
Experimental conditions: male, dog, plasma, oral, fasted, 0.2 or 1.0 mg/kg eletriptan with or without 6.67 mg/kg Vitamin E-TGPS
Endpoint label: Tmax

What value of measured Tmax is listed for CN1CCC[C@@H]1Cc1c[nH]c2ccc(CCS(=O)(=O)c3ccccc3)cc12 ?
1 to 1.7 h

* * *

Test method notes: Eletriptan transport across Caco-2 cell monolayers, effect of concentration
Format: in vitro ADME, human
Experimental conditions: human; Caco-2, 100 μM eletriptan, 2 hours, 37° C.; read-out: Secretory B -> A Papp
Endpoint label: Papp B→A at 2 h, 100 μM
Report the figure along with its unit, number first.

Give the measured Papp B→A at 2 h, 100 μM of CN1CCC[C@@H]1Cc1c[nH]c2ccc(CCS(=O)(=O)c3ccccc3)cc12 .
32.8 ×10⁻⁶ cm/s

* * *

Test method notes: Eletriptan transport across Caco-2 cell monolayers, effect of concentration
Type: in vitro ADME, human
Experimental conditions: human; Caco-2, 10 μM eletriptan, 2 hours, 37° C.; read-out: Secretory B -> A Papp
Endpoint label: Papp B→A at 2 h, 10 μM
Write the quantity with the unit trailing the number.

Entry CN1CCC[C@@H]1Cc1c[nH]c2ccc(CCS(=O)(=O)c3ccccc3)cc12 has what Papp B→A at 2 h, 10 μM?
36.1 ×10⁻⁶ cm/s

* * *

System name: p-gp (Homo sapiens)
Sequence (P08183 whole entry): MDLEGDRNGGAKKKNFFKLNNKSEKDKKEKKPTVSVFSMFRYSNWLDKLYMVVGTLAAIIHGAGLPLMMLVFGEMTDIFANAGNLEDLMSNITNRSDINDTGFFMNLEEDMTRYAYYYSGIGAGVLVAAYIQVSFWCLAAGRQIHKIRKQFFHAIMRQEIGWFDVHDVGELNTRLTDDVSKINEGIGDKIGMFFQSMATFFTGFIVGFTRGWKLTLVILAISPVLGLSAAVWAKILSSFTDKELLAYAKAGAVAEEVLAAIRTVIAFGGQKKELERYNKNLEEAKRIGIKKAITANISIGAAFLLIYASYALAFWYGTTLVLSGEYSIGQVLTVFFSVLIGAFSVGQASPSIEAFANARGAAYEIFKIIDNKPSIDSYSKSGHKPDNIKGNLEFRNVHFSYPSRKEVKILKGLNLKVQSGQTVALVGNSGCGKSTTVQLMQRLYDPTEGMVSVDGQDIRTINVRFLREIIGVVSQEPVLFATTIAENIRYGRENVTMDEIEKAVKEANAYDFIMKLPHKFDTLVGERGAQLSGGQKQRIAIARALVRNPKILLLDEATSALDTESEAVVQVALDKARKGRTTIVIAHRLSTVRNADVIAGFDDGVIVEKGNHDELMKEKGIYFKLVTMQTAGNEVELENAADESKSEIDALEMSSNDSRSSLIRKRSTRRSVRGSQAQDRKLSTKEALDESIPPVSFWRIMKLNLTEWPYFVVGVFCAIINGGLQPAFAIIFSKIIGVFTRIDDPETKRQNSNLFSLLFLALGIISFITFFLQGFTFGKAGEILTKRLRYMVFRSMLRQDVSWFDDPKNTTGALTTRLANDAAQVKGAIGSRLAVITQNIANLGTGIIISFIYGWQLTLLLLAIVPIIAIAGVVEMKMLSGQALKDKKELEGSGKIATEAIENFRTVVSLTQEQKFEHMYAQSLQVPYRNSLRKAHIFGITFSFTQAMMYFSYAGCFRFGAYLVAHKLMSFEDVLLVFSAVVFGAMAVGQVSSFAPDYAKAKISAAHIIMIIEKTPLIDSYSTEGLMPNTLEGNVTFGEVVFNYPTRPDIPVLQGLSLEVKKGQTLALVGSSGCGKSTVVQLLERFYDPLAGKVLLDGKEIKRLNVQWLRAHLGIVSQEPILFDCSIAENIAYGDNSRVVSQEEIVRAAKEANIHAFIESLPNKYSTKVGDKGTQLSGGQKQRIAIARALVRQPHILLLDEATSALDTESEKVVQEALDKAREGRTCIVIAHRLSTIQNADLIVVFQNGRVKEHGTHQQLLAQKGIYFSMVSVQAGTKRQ
Test method notes: in vitro
Experimental conditions: Caco-2
Endpoint label: Papp B→A at 2 h, 10 μM (×10⁻⁶ cm/s)
Number only, in ×10⁻⁶ cm/s; omit the unit.

Entry CN1CCC[C@@H]1Cc1c[nH]c2ccc(CCS(=O)(=O)c3ccccc3)cc12 has what Papp B→A at 2 h, 10 μM?
32.6

Data credit: patent US6579898B2
